target: JR-FL(E168K) Env on pseudovirus (HIV-1 JR-FL); assay: cell-based or functional assay
Parameter: IC50 (ug/ml), pseudovirus neutralization, TZM-bl assay (µg/mL)
Answers are plain numbers, in µg/mL.

Which IC50 (ug/ml), pseudovirus neutralization, TZM-bl assay is listed for 1489_I13 (PG16) (TCN-120) (antibody, V domains shown) VH: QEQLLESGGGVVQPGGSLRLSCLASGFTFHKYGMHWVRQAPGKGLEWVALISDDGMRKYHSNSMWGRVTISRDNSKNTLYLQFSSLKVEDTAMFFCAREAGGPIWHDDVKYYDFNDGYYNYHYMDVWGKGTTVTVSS VL: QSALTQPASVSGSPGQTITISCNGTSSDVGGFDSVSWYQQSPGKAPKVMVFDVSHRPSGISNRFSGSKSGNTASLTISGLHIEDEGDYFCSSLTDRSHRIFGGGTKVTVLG ?
0.005
